Target: human serum albumin (HSA) (Homo sapiens)
Test: HSA refolding with ligand assistance (ED50 for refolding)
Details: Table 1
# Optimal Concentration (refolding ligand) per entry
# number only, unit mM dropped from output

Take a look at these entries with their results.
molecule=CCCCCCCCO uom=mM val=3
molecule=CCCCCO uom=mM val=150
molecule=CCCCCCCCCCO uom=mM val=3
molecule=CCCCO uom=mM val=500
molecule=CCCCCCO uom=mM val=25

Query molecule follows.
query: Give reported Optimal Concentration (refolding ligand) value for CCCCCCCCCCCC(=O)[O-].[Na+] [Na Laurate, sodium laurate]
result: 1

* * *

Molecular target: human serum albumin (HSA) (Homo sapiens, UniProt P02768)
Sequence (P02768 25-609): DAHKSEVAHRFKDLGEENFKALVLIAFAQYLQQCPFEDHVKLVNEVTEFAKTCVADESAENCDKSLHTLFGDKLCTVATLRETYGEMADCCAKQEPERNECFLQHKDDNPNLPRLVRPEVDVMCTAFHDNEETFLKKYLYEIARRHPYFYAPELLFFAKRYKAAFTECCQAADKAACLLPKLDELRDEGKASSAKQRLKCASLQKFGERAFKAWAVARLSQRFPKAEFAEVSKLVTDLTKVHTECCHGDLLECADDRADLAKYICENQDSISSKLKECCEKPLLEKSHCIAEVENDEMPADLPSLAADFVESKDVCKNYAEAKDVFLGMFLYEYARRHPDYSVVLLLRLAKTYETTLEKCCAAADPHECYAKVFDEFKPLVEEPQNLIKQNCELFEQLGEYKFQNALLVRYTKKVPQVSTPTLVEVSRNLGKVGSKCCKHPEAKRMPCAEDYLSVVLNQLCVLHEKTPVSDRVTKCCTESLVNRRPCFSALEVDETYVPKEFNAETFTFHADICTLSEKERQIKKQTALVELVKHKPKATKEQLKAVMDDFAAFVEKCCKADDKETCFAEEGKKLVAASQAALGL
Assay: HSA refolding with ligand assistance (ED50 for refolding)
assay metric: pEC50
Lab note — pEC50 values are minus log10 of concentrations in M.

In the examples that follow, each entry is paired with its recorded pEC50.
compound="CCCCCCCCCCCC(=O)[O-].[Na+] [Na Laurate, sodium laurate]" target="human serum albumin (HSA) (Homo sapiens, UniProt P02768)" val=4.35
compound=CCCCCCCCCCCCO target="human serum albumin (HSA) (Homo sapiens, UniProt P02768)" val=3.64
compound=CCCCCCCCCCO target="human serum albumin (HSA) (Homo sapiens, UniProt P02768)" val=3.52
compound=CCCCCCCCO target="human serum albumin (HSA) (Homo sapiens, UniProt P02768)" val=3.35

query: Answer with the recorded pEC50 of CCCCOC(=O)c1ccc(N)cc1 [n-butyl p-aminobenzoate] only.
result: 3.10

# credit: patent US20050209441A1
